Tested on: MS2 coat protein
Assay: apparent Kd, MS2 coat protein; higher = weaker binding; RNA-MaP array
Conditions: designed as: OFF switch for flavin mononucleotide; no ligand
# apparent Kd >= 0.02 µM gives T, anything below gives F

- Biopolymer Sequence: "UAAGCGUUAGGAUAUACAAAACGAAGAAAGUGAUUCAGAAUACAUGAGGAUCACCCAUGUAGAAGGAACGGGUA"
  Label Class: "F"
- Biopolymer Sequence: "UCGCGCUAAGGAUAUACUAUAAGCCACAUGAGGAUCACCCAUGUUAUAUACAUGUCCUCGGUAGAAGGUAGCCGGA"
  Label Class: "T"
- Biopolymer Sequence: "CGACGUCACGUGAGGAUAUGAUUGCUGCAAAUCAGUCAGAAGGCACAUGAGGAUCACCCAUGUCACCAAUACGA"
  Label Class: "F"
- Biopolymer Sequence: "AGGCGGGUAGGAUAUACCUUGUUCCUAGUAUCCAGUCGAGGACAUGAGGAUCACCCAUGUAGAAGGACCCAUUC"
  Label Class: "T"
- Biopolymer Sequence: "AACGAAUGAGGAUAUACAUGAGGAUCACCCAUGUGAAAGGGAGGUUGAAGAUUUGACAGUAGAAGGCAUAUGAC"
  Label Class: "T"

---

A collection of sequences and their measured apparent Kd
System: MS2 coat protein
Test: apparent Kd, MS2 coat protein; higher = weaker binding; RNA-MaP array; FMN 200 µM where present
Conditions: ligand present: flavin mononucleotide; designed as: ON switch for flavin mononucleotide

- Biopolymer Sequence: "AUAAGCAUUUAUGUGUGCGUAGCACAGGAUAUGCUCCGCGCACAUGAGGAUCACCCAUGUUCGCAGCAGAAGGGUGCAUGCGUU"
  Unit Of Measurement: "µM"
  apparent Kd: 0.0615
- Biopolymer Sequence: "UAUUUUAACUAAGGAUAUCUGUAUUAUGUUGAAACAUGAGGAUCACCCAUGUUCAUGAUAUUAUAGGAGAAGGUAGAUGAAUAA"
  Unit Of Measurement: "µM"
  apparent Kd: 0.00601
- Biopolymer Sequence: "GACUGAUUGUAGAAGGUACUUAAUAAUAUUUAAUAACUCAUGUGACAUGAGGAUCACCCAUGUAGUAAGGAUAUACAUAUCUCA"
  Unit Of Measurement: "µM"
  apparent Kd: 0.0795
- Biopolymer Sequence: "CGAAUGUAGACAGGAUAUCCUGGACAUGAGGAUCACCCAUGUGCAUAAAAUGGAGAAGGGUCACGGAGGCCCUGUGGGCAGGGU"
  Unit Of Measurement: "µM"
  apparent Kd: 0.00921

---

Test system: MS2 coat protein
Experiment: apparent Kd, MS2 coat protein; higher = weaker binding; RNA-MaP array
Settings: ligand present: theophylline; designed as: ON switch for theophylline
A collection of sequences and their measured apparent Kd

- Biopolymer Sequence: "GAAGCUCGCGAUGAUACCAGCUCGACUGAUAACAUGAGGAUCACCCAUGUUGUGCGCCCUAGCCCUUGGCAGCAUGACAUAUUCG"
  Test System: "MS2 coat protein"
  apparent Kd: "0.0711 µM"
- Biopolymer Sequence: "CCGCCCUACCGCGAUACCAGUACGGCAGUUAACAUGAGGAUCACCCAUGUGCAAACAUAAUACCCUUGGCAGCGCCUGAAUCCAU"
  Test System: "MS2 coat protein"
  apparent Kd: "0.0173 µM"
- Biopolymer Sequence: "CCAAGCAUAAUAGAUACCAGUCGUAUACCUCCAACAUGAGGAUCACCCAUGUGCUCAGUUGACCCUUGGCAGCUAUGCCUAUAGA"
  Test System: "MS2 coat protein"
  apparent Kd: "0.0258 µM"
- Biopolymer Sequence: "AAAAGACAUGAGGAUCACCCAUGUAGAGAUACCAGAUGCAUGGACAUCCCUUGGCAGCUCGUCACUUUCUAUAUUUUCCAGACGC"
  Test System: "MS2 coat protein"
  apparent Kd: "0.0219 µM"
